B1: Retinoic acid receptor beta, residues 85 to 161; numbered along this chain, P10826 (parent)
chain: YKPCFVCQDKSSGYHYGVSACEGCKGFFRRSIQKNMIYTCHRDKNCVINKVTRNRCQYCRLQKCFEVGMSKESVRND

variants of: B1; experiment: abundance fitness (aPCA) (normalised: wild type 0, dead -1); higher = more abundant; growth selection in yeast, the domain comes from the species named; details: Homo sapiens
QUANTITY_MEASURED: abundance fitness
Respond numerically, and do not add a unit to the figure.

Sample answers from the record:
D43T
0.007
C46V
-0.737
C21T
-0.98

Q) Indicate its recorded abundance fitness; the variant in question is T39D
A) 0.078

Q) Look up and report measured abundance fitness for this entry: K44Y
A) -0.321

Q) Assign abundance fitness to the following record: V6C
A) -0.995

Q) Identify the reported abundance fitness for the following entry. C59N
A) -0.834

Q) Determine its reported abundance fitness: R53K
A) 0.071

Q) Please indicate abundance fitness recorded for V47F
A) -0.11

Q) Report abundance fitness for C21L
A) -0.752

Q) Look up and state reported abundance fitness for C24F
A) -0.577

Q) Provide one value: measured abundance fitness of T52R
A) -0.745

Q) Return reported abundance fitness. Input variant: G23I
A) -0.282

Q) Complete the entry with abundance fitness for I48A
A) -0.531

Q) Give abundance fitness for the following variant: C21D
A) -0.904

Q) Report measured abundance fitness; entry is S11A
A) -0.21

Origin of the recorded values: the Human Domainome abundance scans (Beltran et al. 2025)
